Reference source for all entries: ChEMBL document CHEMBL3988442

Catalogue of Percent Effect readings, one per entry.
# ASSAY_TARGET: AMP-activated protein kinase, AMPK (Homo sapiens) (UniProt P54646+O43741+P54619+Q9UGJ0+Q9Y478+Q13131+Q9UGI9)
# ASSAY_SUMMARY: AMP-dependent Kinase enzyme assay. An in vitro enzyme assay that detects ADP turnover that is directly proportional to AMPK activity. This uses naive AMPK that is activated during the assay with MK-8722
# Format: functional
# Parameters: scale not given: direction of the effect not stated beside the values
# CONDITION_DESCRIPTION: 30 µM
MEASURE: Percent Effect

>>> df
                                   molecule  value_reported
0                Cn1c(N)nnc1SCc1c(F)cccc1Br           4.93%
1  CN(CCc1ncnn1C1Cc2ccccc2C1)C1CCS(=O)(=O)C1 (stereo unspecified)          -4.47%
2  CN1CC(C(=O)NCCc2ccc3c(c2)OCO3)CC1=O (stereo unspecified)           3.69%
3  CCC[C@@H]1CN(Cc2ccc(C(F)(F)F)nc2)C[C@H]1NS(C)(=O)=O           4.44%
4  O=C(NC1CCOCC1)c1cccc(C2CCCNC2)c1 (stereo unspecified)            2.1%
5  COC(CNC(=O)c1ccc(NC(C)=O)cc1)c1cccc(Cl)c1 (stereo unspecified)            1.2%

###

# ASSAY_TARGET: AMP-activated protein kinase, AMPK (Homo sapiens) (UniProt P54646+O43741+P54619+Q9UGJ0+Q9Y478+Q13131+Q9UGI9)
# ASSAY_SUMMARY: AMP-dependent Kinase enzyme assay. An in vitro enzyme assay that detects ADP turnover that is directly proportional to AMPK activity. This uses naive AMPK that is activated during the assay with MK-8722
# Assay type: functional
# Set-up: scale not given: direction of the effect not stated beside the values
# CONDITION_DESCRIPTION: 30 µM
MEASURE: Percent Effect (%)

>>> print(df.to_string())
                                    compound         measure  units_symbol  value_reported
 0             Cc1c(NC(=O)NCCO)cccc1OC1CCCC1  Percent Effect             %           -2.68
 1  CN(CC(O)C(F)(F)F)C(=O)Nc1cccc(N2CCCC2)c1 (configuration not stated)  Percent Effect             %           -4.79
 2  Cc1nn(C)c(C)c1S(=O)(=O)NCC1(C(N)=O)CCOCC1  Percent Effect             %           0.589
 3       CC(C)c1nc(CN(C)S(=O)(=O)c2cccs2)cs1  Percent Effect             %            4.38
 4  Cc1ccc(CN(C)C(=O)CNC(C)(C)c2noc(C(C)(C)C)n2)o1  Percent Effect             %           -1.82
 5  CN(CCCOc1ccccc1Cl)C(=O)CN1C[C@@H]2CC[C@H](CC1=O)N2  Percent Effect             %            10.1
 6                Cc1cc(NCCNc2cccnc2)nc(N)n1  Percent Effect             %           -11.6
 7  O=C(c1cnn[nH]1)N(Cc1ccncc1)CC1CCCO1 (configuration not stated)  Percent Effect             %           -5.18
 8  CC(C)NC(=O)c1nc(Cn2c(C(F)F)nc3ccccc32)no1  Percent Effect             %            12.9
 9  Cc1cc(C)c2c(NC(C)c3nncn3C3CCCC3)ncnc2n1 (configuration not stated)  Percent Effect             %            4.35
10  CCCSCC(=O)N1CCCC(CO)(CCC)C1 (configuration not stated)  Percent Effect             %               7
11      Cc1ccccc1Cc1nc(CSc2nnc(N)n2C2CC2)no1  Percent Effect             %            7.43

###

Reported Percent Effect is given for each of the following compounds.
# System: Trypanosoma cruzi
# ASSAY_SUMMARY: Trypanosoma cruzi phosphomannomutase and mannose-1-phosphate guanylyltransferase assay
# Format: functional
# Design: scale not given: direction of the effect not stated beside the values
# CONDITION_DESCRIPTION: 10 µM
MEASURE: Percent Effect (%)

>>> df
                                    compound       assay_target  value_reported
 0  Cn1ccnc1CN1CCOCC(Cc2ccccn2)C1 (centres undefined)  Trypanosoma cruzi           -4.14
 1   CNC(=O)c1ccc(CN(C(=O)c2scnc2C)C2CC2)cc1  Trypanosoma cruzi          -0.845
 2     Cc1cnc(N2CCC3(CCN(CC4CC4)C3=O)CC2)nc1  Trypanosoma cruzi           -4.13
 3  CCc1nnc(CN2CCCC(c3cc(C(F)(F)F)[nH]n3)C2)o1 (centres undefined)  Trypanosoma cruzi           -4.22
 4  Fc1cccc(-c2nc(CN3CCn4c(nnc4C4CC4)C3)co2)c1  Trypanosoma cruzi           -5.42
 5  Cc1cc2c(cc1C(=O)N1CC[C@H](CO)[C@@H](O)C1)OCCO2  Trypanosoma cruzi            4.37
 6  CCCn1[nH]cc/c1=N\C(=O)CN1CCc2cnc(CC)nc2C1  Trypanosoma cruzi           -2.61
 7  COCC1CC2(CCN(Cc3cnn(C)c3)CC2)CN1C(C)C (centres undefined)  Trypanosoma cruzi           -2.82
 8  O=C(CCSc1ccc(F)cc1)NS(=O)(=O)c1ccc2c(c1)OCCO2  Trypanosoma cruzi            4.22
 9  Cc1occc1C(=O)N1CC[C@@H](N2CCOCC2)[C@@H]1Cc1ccccc1  Trypanosoma cruzi           0.876
10  CNc1snc(C)c1C(=O)N1CCCC(n2ccnc2C(C)C)C1 (centres undefined)  Trypanosoma cruzi            2.21
11         Cn1cc(C(=O)N2CCC(Cc3nccs3)CC2)cn1  Trypanosoma cruzi           -4.54
12  CC(Cn1cccn1)NC(=O)NCc1ccccn1 (centres undefined)  Trypanosoma cruzi           -5.22
13  CCc1nccn1-c1cncc(C2CCCN2Cc2ccc(F)cc2)n1 (centres undefined)  Trypanosoma cruzi            1.97
14  COc1cc(N2CCCC(c3nccn3Cc3cscn3)C2)nc(N)n1 (centres undefined)  Trypanosoma cruzi            6.89
15  NC(=O)C1CCC(NC(=O)COc2ccc(Cl)c(Cl)c2)CC1 (centres undefined)  Trypanosoma cruzi            6.16
16  Cc1nc(C(=O)N2CCC(Cc3cnc4[nH]ccc4c3)C2)co1 (centres undefined)  Trypanosoma cruzi           -1.97
17  CNC(=O)N1C[C@H]2C[C@H](C(=O)Nc3ccccc3)[C@@H](C1)O2  Trypanosoma cruzi          0.0974
18  CCOC1COC2(CCN(S(=O)(=O)c3cccc(F)c3)CC2)C1 (centres undefined)  Trypanosoma cruzi            -7.3
19  CCc1[nH]ncc1C(=O)N1CCCC(n2nc(C)nc2C)C1 (centres undefined)  Trypanosoma cruzi            11.9
20  CC(O)CN1CCC(CNCc2ccccc2Br)CC1 (centres undefined)  Trypanosoma cruzi            11.4
21  COc1ccc2c(c1)OCC(CNC(=O)c1ccncc1)C2 (centres undefined)  Trypanosoma cruzi            7.66
22  Cc1ncnc(NCc2cc3n(n2)CCCN(S(C)(=O)=O)C3)c1C  Trypanosoma cruzi           -1.07
23  Cn1c(CN2CCCC2c2noc(C3CC3)n2)cc(=O)n(C)c1=O (centres undefined)  Trypanosoma cruzi           -3.01

###

Each entry below carries its recorded Percent Effect.
# ASSAY_TARGET: AMP-activated protein kinase, AMPK (Homo sapiens) (UniProt P54646+O43741+P54619+Q9UGJ0+Q9Y478+Q13131+Q9UGI9)
# ASSAY_SUMMARY: AMP-dependent Kinase enzyme assay. An in vitro enzyme assay that detects ADP turnover that is directly proportional to AMPK activity. This uses naive AMPK that is activated during the assay with MK-8722
# Assay type: functional
# Design: scale not given: direction of the effect not stated beside the values
# CONDITION_DESCRIPTION: 30 µM
MEASURE: Percent Effect (%)

In [3]: df
Out[3]:
                                    molecule  value_reported
 0      Cc1ccc(CNc2cc3c(cc2Cl)NC(=O)CO3)cc1C          -0.667
 1     Cc1cc(=O)n2nc(Oc3cccc(C(N)=O)c3)sc2n1           -11.1
 2  FC(F)(F)c1ccnc(N2CCC(c3nccn3CC3CC3)CC2)n1            19.6
 3  N[C@H]1CN(C(=O)c2ccc3[nH]c(CO)nc3c2)C[C@@H]1c1ccccc1            3.57
 4     Cc1cnn(CCNCC(=O)N2CCN(c3ccccn3)CC2)c1           -14.7
 5  O=C(Nc1cccnc1)NC1CCN(c2ccccc2OC(F)F)C1 (configuration not stated)           0.675
 6  CC1(C)CC1(C(=O)N1CC(c2cccnc2)C1)c1ccccc1F (configuration not stated)           -6.17
 7            CC(C)OCCN1CCC(Nc2nccnc2C#N)CC1           -5.15
 8        CC(C)c1cc(NCc2csc(C(C)C)n2)nc(N)n1           -7.72
 9  COc1cccc2c1OCC(C(=O)NCc1ncc3c(n1)CCC3)C2 (configuration not stated)            6.59
10       O=C(Cc1nc(-c2ccncc2)n[nH]1)N1CCOCC1            7.55
11  O=C(CCn1cnnn1)N1CCCC(CO)(CCCc2ccccc2)C1 (configuration not stated)           0.115
